Test: Pharmacokinetic study in rats after oral administration of SYD extract and its single and combined TCM extracts (UPLC-MS/MS of plasma)
Conditions: male, Sprague-Dawley, rat, plasma, po, 2.43 g/kg, Cmax, rat plasma, oral AS + GU extract 2.43 g/kg, n = 6
Metric name: Cmax
Please don't drop the unit; write it after the number.

Query :: Quick one: Cmax for O=C(/C=C/c1ccc(O)c(O)c1)O[C@@H]1C[C@](O)(C(=O)O)C[C@@H](O)[C@H]1O ?
Result :: 290 ng/mL

----------
Tmax listing for selected compounds.
Experiment: Pharmacokinetic study in rats after oral administration of SYD extract and its single and combined TCM extracts (UPLC-MS/MS of plasma)
Conditions: male, Sprague-Dawley, rat, plasma, po, 4.01 g·kg^−1 (extract), Tmax, rat plasma, oral LJ + AS + GU extract, n = 6
State just the number; it will be interpreted in h.

Query :: Recorded Tmax of COC(=O)C1=CO[C@@H](O[C@@H]2O[C@H](CO)[C@@H](O)[C@H](O)[C@H]2O)[C@@H]2[C@@H](C)[C@@H](O)C[C@H]12 [Loganin, loganin] , please.
Result :: 1.5

Let us move to another entry and its Tmax.
Query :: I have this compound here, O=C1C[C@@H](c2ccc(O[C@@H]3O[C@H](CO)[C@@H](O)[C@H](O)[C@H]3O)cc2)Oc2cc(O)ccc21 [Liquiritin, liquiritin] , and I need its recorded Tmax.
Result :: 0.79

// data source = paper PMC6150365
